- Tested on: SN12C
- EXPERIMENTAL_DETAILS: Antiproliferative activity against human SN12C cells
- Format: functional
READOUT_NAME: GI50 (nM)
Express the result in nM but write the number alone.

Prompt: Let me know recorded GI50 for COc1cc2c(cc1O)C(=O)c1c-2n(CCCN2CCOCC2)c(=O)c2cc(OC)c(OC)cc12 , thanks.
Response: 20

Prompt: Let me know recorded GI50 for COc1cc2c3c(n(CCCN4CCOCC4)c(=O)c2cc1OC)-c1cc2c(cc1C3O)OCO2 (stereo unspecified) , thanks.
Response: 3390

Prompt: Let me know recorded GI50 for COc1cc2c(=O)n(CCCN3CCOCC3)c3c(c2cc1O)C(=O)c1cc2c(cc1-3)OCO2 , thanks.
Response: 195

Prompt: Let me know recorded GI50 for COc1cc2c(cc1O)-c1c(c3cc(OC)c(OC)cc3c(=O)n1CCCN1CCOCC1)C2=O , thanks.
Response: 191

Prompt: Let me know recorded GI50 for COc1cc2c3c(n(CCCN4CCOCC4)c(=O)c2cc1OC)-c1cc(O)c(O)cc1C3=O , thanks.
Response: 65

Prompt: Let me know recorded GI50 for COc1cc2c3c(n(CCCn4ccnc4)c(=O)c2cc1OC)-c1cc(O)c(O)cc1C3=O , thanks.
Response: 30

Prompt: Let me know recorded GI50 for COc1cc2c3c(n(CCCn4ccnc4)c(=O)c2cc1OC)-c1cc2c(cc1C3O)OCO2 (stereo unspecified) , thanks.
Response: 501

----------
- TARGET_SYSTEM: DNA topoisomerase 1 (Homo sapiens) (UniProt P11387)
- EXPERIMENTAL_DETAILS: Inhibition of human recombinant Top1-mediated DNA cleavage after 20 mins by […] analysis relative to camptothecin
- Set-up: concentration or dose not given beside the values
Would you kindly list inhibition for each of these molecules?

Prompt: Let me know recorded inhibition for COc1cc2c(cc1O)-c1c(c3cc(OC)c(OC)cc3c(=O)n1CCCN1CCOCC1)C2=O , thanks.
Response: 75%

Prompt: Let me know recorded inhibition for COc1cc2c(=O)n(CCCN3CCOCC3)c3c(c2cc1O)C(=O)c1cc2c(cc1-3)OCO2 , thanks.
Response: 50%

----------
- Test system: SF-539
- EXPERIMENTAL_DETAILS: Antiproliferative activity against human SF539 cells
- Assay type: functional
READOUT_NAME: GI50

Prompt: Let me know recorded GI50 for COc1cc2c(=O)n(CCCN3CCOCC3)c3c(c2cc1O)C(=O)c1cc2c(cc1-3)OCO2 , thanks.
Response: 335 nM

Prompt: Let me know recorded GI50 for COc1cc2c3c(n(CCCN4CCOCC4)c(=O)c2cc1O)-c1cc2c(cc1C3=O)OCO2 , thanks.
Response: < 10 nM

Prompt: Let me know recorded GI50 for COc1cc2c3c(n(CCCN4CCOCC4)c(=O)c2cc1OC)-c1cc2c(cc1C3O)OCO2 (stereo unspecified) , thanks.
Response: 2400 nM

Prompt: Let me know recorded GI50 for COc1cc2c3c(n(CCCN4CCOCC4)c(=O)c2cc1OC)-c1cc(O)c(O)cc1C3=O , thanks.
Response: 148 nM

Prompt: Let me know recorded GI50 for COc1cc2c3c(n(CCCn4ccnc4)c(=O)c2cc1OC)-c1cc2c(cc1C3O)OCO2 (stereo unspecified) , thanks.
Response: 479 nM

Prompt: Let me know recorded GI50 for COc1cc2c(cc1O)C(=O)c1c-2n(CCCn2ccnc2)c(=O)c2cc(OC)c(OC)cc12 , thanks.
Response: < 10 nM

Prompt: Let me know recorded GI50 for COc1cc2c3c(n(CCCn4ccnc4)c(=O)c2cc1O)-c1cc2c(cc1C3=O)OCO2 , thanks.
Response: < 10 nM

Prompt: Let me know recorded GI50 for COc1cc2c3c(n(CCCn4ccnc4)c(=O)c2cc1OC)-c1cc(O)c(O)cc1C3=O , thanks.
Response: 10 nM

Prompt: Let me know recorded GI50 for COc1cc2c(cc1O)-c1c(c3cc(OC)c(OC)cc3c(=O)n1CCCN1CCOCC1)C2=O , thanks.
Response: 282 nM

Prompt: Let me know recorded GI50 for COc1cc2c(=O)n(CCCn3ccnc3)c3c(c2cc1O)C(=O)c1cc2c(cc1-3)OCO2 , thanks.
Response: < 10 nM

Prompt: Let me know recorded GI50 for COc1cc2c(cc1O)C(=O)c1c-2n(CCCN2CCOCC2)c(=O)c2cc(OC)c(OC)cc12 , thanks.
Response: 20 nM

----------
- TARGET_SYSTEM: DNA topoisomerase 1 (Homo sapiens)
- Sequence (whole entry): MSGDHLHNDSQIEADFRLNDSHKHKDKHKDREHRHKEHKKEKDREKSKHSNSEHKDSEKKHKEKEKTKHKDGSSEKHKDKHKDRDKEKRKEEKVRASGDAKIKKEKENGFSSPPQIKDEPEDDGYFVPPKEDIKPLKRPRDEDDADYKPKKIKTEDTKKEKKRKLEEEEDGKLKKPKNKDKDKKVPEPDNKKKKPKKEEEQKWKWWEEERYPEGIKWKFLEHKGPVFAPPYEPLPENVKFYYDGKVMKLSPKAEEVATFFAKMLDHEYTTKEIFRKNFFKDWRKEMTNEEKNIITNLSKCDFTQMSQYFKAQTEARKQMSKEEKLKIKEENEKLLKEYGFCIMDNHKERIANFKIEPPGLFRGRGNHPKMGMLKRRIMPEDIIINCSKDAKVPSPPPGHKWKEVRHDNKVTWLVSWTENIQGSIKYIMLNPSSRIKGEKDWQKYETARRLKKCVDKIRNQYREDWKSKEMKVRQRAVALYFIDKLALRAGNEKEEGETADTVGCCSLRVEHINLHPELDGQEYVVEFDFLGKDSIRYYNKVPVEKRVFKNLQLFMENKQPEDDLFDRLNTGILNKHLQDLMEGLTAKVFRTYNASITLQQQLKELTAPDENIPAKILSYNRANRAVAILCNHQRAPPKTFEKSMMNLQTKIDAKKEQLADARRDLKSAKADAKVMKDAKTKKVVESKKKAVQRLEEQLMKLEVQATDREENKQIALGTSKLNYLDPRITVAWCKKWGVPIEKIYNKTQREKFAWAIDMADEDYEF
- EXPERIMENTAL_DETAILS: Inhibition of human recombinant Top1-mediated DNA cleavage after 20 mins by […] analysis relative to camptothecin
- Parameters: concentration or dose not given beside the values
Active and inactive are the calls of the source. The calls are words filed in the database; no cut-off is given here.
READOUT_NAME: inhibition

Known inhibition results, listed for orientation:
> print(dat)
                                   compound                       target.system  measured.result
1  COc1cc2c3c(n(CCCn4ccnc4)c(=O)c2cc1OC)-c1cc2c(cc1C3O)OCO2 (centres undefined)  DNA topoisomerase 1 (Homo sapiens)              50%
2  COc1cc2c(cc1O)-c1c(c3cc(OC)c(OC)cc3c(=O)n1CCCn1ccnc1)C2=O  DNA topoisomerase 1 (Homo sapiens)              50%
3  COc1cc2c(cc1O)C(=O)c1c-2n(CCCn2ccnc2)c(=O)c2cc(OC)c(OC)cc12  DNA topoisomerase 1 (Homo sapiens)           Active
4  COc1cc2c(=O)n(CCCn3ccnc3)c3c(c2cc1O)C(=O)c1cc2c(cc1-3)OCO2  DNA topoisomerase 1 (Homo sapiens)           Active
5  COc1cc2c3c(n(CCCN4CCOCC4)c(=O)c2cc1O)-c1cc2c(cc1C3=O)OCO2  DNA topoisomerase 1 (Homo sapiens)              75%

Prompt: Let me know recorded inhibition for COc1cc2c3c(n(CCCN4CCOCC4)c(=O)c2cc1OC)-c1cc2c(cc1C3O)OCO2 (centres undefined) , thanks.
Response: 50%

Prompt: Let me know recorded inhibition for COc1cc2c3c(n(CCCn4ccnc4)c(=O)c2cc1O)-c1cc2c(cc1C3=O)OCO2 , thanks.
Response: Active

Prompt: Let me know recorded inhibition for COc1cc2c(cc1O)C(=O)c1c-2n(CCCN2CCOCC2)c(=O)c2cc(OC)c(OC)cc12 , thanks.
Response: Active

Prompt: Let me know recorded inhibition for COc1cc2c3c(n(CCCn4ccnc4)c(=O)c2cc1OC)-c1cc(O)c(O)cc1C3=O , thanks.
Response: 50%
